Taken from patent US20080102065A1.

Target: T1, huEpoR protein (soluble human erythropoietin receptor) (human, UniProt P19235 25-250, limits assumed)
T1 construct: also called soluble huEpoR; biotinylated huEpoR
T1 sequence (looked up): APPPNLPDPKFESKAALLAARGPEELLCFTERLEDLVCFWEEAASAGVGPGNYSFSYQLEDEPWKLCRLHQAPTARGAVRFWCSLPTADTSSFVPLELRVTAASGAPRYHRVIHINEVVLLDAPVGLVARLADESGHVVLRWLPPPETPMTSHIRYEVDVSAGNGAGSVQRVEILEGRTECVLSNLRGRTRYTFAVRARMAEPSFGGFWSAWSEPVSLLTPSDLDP
Assay: SPR, Biacore T100; scFv-Fc captured on anti-human IgG Fc CM5 chip, EpoR as analyte; 1:1 fit;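 further: measured at 25 °C in HBS-EP buffer with 0.1 mg/ml BSA, flowed at 50 µl/min, 1 min association then dissociation (10 min human, 5 min cyno EpoR)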
The binders listed here are annotated with their koff.
metricName: koff (s⁻¹)

1. Mxb 307 (clone 307 scFv-Fc protein) (Fc fusion, Tested as scFv-Fc (maxibody) with an Fc derived from human IgG1) VH: EVQLVESGGGLVQPGGSLRLSCAVSGFTFSKYWMTWVRQAPGKGLEWVANIKPDGSEKYYVESVKGRFTISRDNAKNSVYLQMNSVRAEDTAVYYCARVSRGGSFSDWGQGTMVTVSS VL: QSVLTQPPSASGSPGQSVTISCTGTSSDVGGYNYVSWYQQHPDKAPRLMIYDVNKRPSGVPDRFSGSKSGNTASLTVSGLQAEDEAHYYCNSYAGSNNWVFGGGTQLTVL = 0.246
2. Mxb 201 (clone 201 scFv-Fc protein) (Fc fusion, Tested as scFv-Fc (maxibody) with an Fc derived from human IgG1) VH: QVQLQESGSGLARPSQTLSLTCAVSGGSISSSAFSWNWIRQPPGKGLEWIGYIYHTGITDYNPSLKSRVTISVDRSKNQFSLNVNSVTAADTAVYYCARGHGSDPAWFDPWGKGTLVTVSS VL: QSVLTQPPSVSVSPGQTASITCSGDKLGDKYASWYQQRPGQSPVLVIYRDTKRPSGIPERFSGSNSGNTATLTISGTQAVDEADYYCQAWDSTTSLVFGGGTKLTVL = 0.0187
3. Mxb 295 (clone 295 scFv-Fc protein) (Fc fusion, Tested as scFv-Fc (maxibody) with an Fc derived from human IgG1) VH: EVQLVESGGGLVQPGGSLRLSCAASGFTFSSYAMSWVRQAPGKGLEWVSGISGSGSSEGGTYYADSVKGRFTLSRDNSKNTLYLQMNSLRAEDTALYYCVKDRPSRYSFGYYFDYWGRGTLVTVSS VL: LPVLTQPPSVSVSPGQTASIACSGNKLGDKYVSWYQQKPGQSPLLVIYQDTKRPSGIPERFSGSNSGNTATLTISGTQAMDEADYYCQAWDSSTDVVFGGGTKLTVL = 0.00296
4. Mxb 34 (clone 34 scFv-Fc protein) (Fc fusion, Tested as scFv-Fc (maxibody) with an Fc derived from human IgG1) VH: QVQLQQSGAEVKKPGASVKVSCKASGYTFSGYYMHWVRQAPGQGLEWMGWINPNSGSTNYAQKFLGRVTMTRDTSISTAYMELSSLRSDDTAVYYCARGHSGDYFDYWGQGTLVTVSA VL: EIVLTQSPSSLSASVGDRVTITCRASQSVSSWLAWYQQRPGQAPKLLIYAARLRGGGPSRFSGSGSGTEFTLTISSLQPEDFATYFCQQSYSTPISFGGGTKLEIK = 0.203
5. Mxb 16 (clone 16 scFv-Fc protein) (Fc fusion, Tested as scFv-Fc (maxibody) with an Fc derived from human IgG1) VH: QVQLQESGPGLVKPSETLSLTCTVSGGYINNYYWSWIRQPPGKGLEWIGYIHYSGSTYYNPSLKSRVTISEDTSKNQFSLKLSSATAADTAVYYCARVGYYYDSSGYNLAWYFDLWGRGTLVTVSA VL: SSELTQDPAVSVALGQTVRITCQGDNLRSYSATWYQQKPGQAPVLVLFGENNRPSGIPDRFSGSKSGDTAVLTITGTQTQDEADYYCTSRVNSGNHLGVFGPGTQLTVL = 0.142
